Data provenance: patent US8580809B2

target-or-test-system: mu opiate receptor (MOR) (Rattus norvegicus)
Construct: from tissue; host or cells: rat striatal membrane preparation
Sequence (P33535 whole entry): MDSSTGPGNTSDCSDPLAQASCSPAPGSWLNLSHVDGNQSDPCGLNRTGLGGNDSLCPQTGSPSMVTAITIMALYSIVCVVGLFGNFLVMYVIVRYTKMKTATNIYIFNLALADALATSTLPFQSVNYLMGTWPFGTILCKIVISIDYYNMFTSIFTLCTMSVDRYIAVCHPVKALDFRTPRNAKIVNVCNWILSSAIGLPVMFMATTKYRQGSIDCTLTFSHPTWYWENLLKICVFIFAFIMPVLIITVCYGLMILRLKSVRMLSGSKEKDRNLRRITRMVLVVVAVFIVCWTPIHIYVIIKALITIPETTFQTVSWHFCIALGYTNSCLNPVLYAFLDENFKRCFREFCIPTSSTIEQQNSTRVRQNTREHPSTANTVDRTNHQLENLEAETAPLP
test-name: MOR agonist activity using [35S]GTPγS binding assay in striatal membranes
Type: biochemical
conditions: 1 μM compound + 1 μM β-funaltrexamine
Recorded MOR agonist activity, [35S]GTPγS binding to Gαo, 1 μM + BFNA by entry
assay-readout: MOR agonist activity, [35S]GTPγS binding to Gαo, 1 μM + BFNA (%)

| compound | numeric-readout |
| --- | --- |
| Cc1ccc(S(=O)(=O)N2CCC3(CC2)OCCN3S(=O)(=O)c2ccc(C)cc2)cc1 [Compound C0001] | 33.9 |
| O=S(=O)(c1ccc(Oc2ccccc2)cc1)N1CCC2(CC1)OCCN2S(=O)(=O)c1ccc(Oc2ccccc2)cc1 [Compound C0149M] | 93.4 |
| O=S(=O)(c1ccc(Br)cc1)N1CCC2(CC1)OCCN2S(=O)(=O)c1ccc(Br)cc1 [Compound C0025] | 80.2 |
| O=S(=O)(c1ccc(C(F)(F)F)cc1Br)N1CCC2(CC1)OCCN2S(=O)(=O)c1ccc(C(F)(F)F)cc1Br [Compound C0071] | 177.1 |
| COc1cccc(S(=O)(=O)N2CCC3(CC2)OCCN3S(=O)(=O)c2cccc(OC)c2)c1 [Compound C0002] | 3.9 |
| Cc1ccccc1S(=O)(=O)N1CCC2(CC1)OCCN2S(=O)(=O)c1ccccc1C [Compound C0015] | 126.8 |
| O=S(=O)(c1ccc(Br)cc1Br)N1CCC2(CC1)OCCN2S(=O)(=O)c1ccc(Br)cc1Br [Compound C0070] | 114.2 |
